study.target: T1, recombinant human soluble gpNMB (recombinant human gpNMB-FLAG-His) (human, UniProt Q14956 23-498)
T1 sequence: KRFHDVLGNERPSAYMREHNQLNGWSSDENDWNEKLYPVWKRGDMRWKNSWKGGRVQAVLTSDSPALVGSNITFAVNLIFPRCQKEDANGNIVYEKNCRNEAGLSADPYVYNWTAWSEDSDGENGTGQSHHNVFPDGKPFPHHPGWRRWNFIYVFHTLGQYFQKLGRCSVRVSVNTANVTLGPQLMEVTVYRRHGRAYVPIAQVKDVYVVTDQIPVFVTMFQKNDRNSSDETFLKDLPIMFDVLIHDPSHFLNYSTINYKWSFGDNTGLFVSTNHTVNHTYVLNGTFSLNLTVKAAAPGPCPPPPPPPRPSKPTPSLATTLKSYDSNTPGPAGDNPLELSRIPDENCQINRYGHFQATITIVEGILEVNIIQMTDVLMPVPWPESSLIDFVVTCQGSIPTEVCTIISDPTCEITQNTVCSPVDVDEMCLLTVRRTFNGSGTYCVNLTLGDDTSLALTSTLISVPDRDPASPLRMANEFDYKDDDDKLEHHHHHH
measurement.notes: antigen ELISA, vs hGPN18-2_H2L3
Below, each of the binders is paired with its reported Relative binding activity value.

| binder | Relative binding activity |
| --- | --- |
| hGPN18-2_H2L3 VL N58A (antibody, V domains shown) VH: QVQLVQSGPGLVQPTQTLTLTCSFSGFSLSTSVMGVGWIRQPSGKGLEWLADIWWDDDKDYNPSLKSRLTISKDTSKNQVVLTMTNMDTVDTATYYCARTYYSNYEYYGMDYWGQGTLVTVSS VL: DIVMTQSPDSLAVSLGERATINCRSSQTIILSNGNTYLEWYQQKPGQPPKLLIYKVSARFSGVPDRFSGSGSGTDFTLTISSLQAEDVAVYYCFQGSHVPFTFGSGTKLEIKR | 1.04 |
| hGPN18-2_H2L3 VL S97A (antibody, V domains shown) VH: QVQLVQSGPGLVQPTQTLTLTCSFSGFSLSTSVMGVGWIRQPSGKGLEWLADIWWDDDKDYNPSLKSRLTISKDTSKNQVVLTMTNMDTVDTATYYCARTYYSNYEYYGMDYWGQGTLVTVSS VL: DIVMTQSPDSLAVSLGERATINCRSSQTIILSNGNTYLEWYQQKPGQPPKLLIYKVSNRFSGVPDRFSGSGSGTDFTLTISSLQAEDVAVYYCFQGAHVPFTFGSGTKLEIKR | 1.04 |
